Each entry below carries its recorded pEC50.
Tested on: HIV-1NL4-3 Nanoluc-sec virus
method notes: Anti-HIV assay: multicycle viral replication in MT4 cells, Nano-Glo luciferase readout
Type: cell-based
test context: Human immunodeficiency virus 1, MT4, read-out: PEC50, actual value converted from EC50, 3D-QSAR dataset
Bear in mind: pEC50 is minus log10 of a mol/L concentration; give just that figure.

Some solved cases for reference:
CC(=O)OC1C2C3(C)CCC(C(C)(C)O)(OCC24CCC25CC26CCC(OC(C)=O)C(C)(C)C6CCC5C4(C)C1OC(C)=O)O3 (stereo not drawn) :: 5.61
CC(=O)OC1C2C3(C)CCC(C(C)(C)O)(OCC24CCC25CC26CCC(OC(=O)CC2(CC(=O)O)CCCC2)C(C)(C)C6CCC5C4(C)C1OC(C)=O)O3 (stereo not drawn) :: 5.80

With those in mind, consider the next compound.
Ask | For CC(=O)OC1C2C3(C)CCC(C(C)(C)O)(OCC24CCC25CC26CCC(OC(=O)CC(C)C(=O)O)C(C)(C)C6CCC5C4(C)C1OC(C)=O)O3 (stereo not drawn) , what is its reported pEC50?
Reply | 5.96

###

Tested on: HIV-1NL4-3 Nanoluc-sec virus
method notes: Anti-HIV assay: multicycle viral replication in MT4 cells, Nano-Glo luciferase readout
Assay type: cell-based
test context: Human immunodeficiency virus 1, MT4, read-out: PEC50, actual value converted from EC50, 3D-QSAR dataset
measurement name: log10 EC50 (log10 of the value in µM)
Please be aware that the numbers have been log10-transformed from EC50 in µM.

These recorded examples may help you get a feel for the data.
CC(=O)OC1C2C3(C)CCC(C(C)(C)O)(OCC24CCC25CC26CCC(OC(=O)CC(C)(C)C(=O)OCc2ccccc2)C(C)(C)C6CCC5C4(C)C1OC(C)=O)O3 (stereo not shown) :: -0.55
CC(=O)OC1C(O)C2C3(C)CCC(C(C)(C)O)(OCC24CCC25CC26CCC(OC2OCC(O)C(O)C2O)C(C)(C)C6CCC5C14C)O3 (stereo not shown) :: 0.69
CC(C)(CC(=O)OC1CCC23CC24CCC25COC6(C(C)(C)O)CCC(C)(O6)C2C(O)C(O)C5(C)C4CCC3C1(C)C)C(=O)O (stereo not shown) :: 0.25
CC12CCC(C(C)(C)O)(OCC34CCC56CC57CCC(OC5OCC(O)C(O)C5O)C(C)(C)C7CCC6C3(C)C(O)C(O)C14)O2 (stereo not shown) :: 0.88
CC(=O)OC1C2C3(C)CCC(C(C)(C)O)(OCC24CCC25CC26CCC(OC2OCC(O)C(O)C2O)C(C)(C)C6CCC5C4(C)C1OC(C)=O)O3 (stereo not shown) :: 0.37

Ask | Which log10 EC50 value belongs to CC(C)(CC(=O)OC1CCC23CC24CCC25COC6(C(C)(C)O)CCC(C)(O6)C2C(O)C(O)C5(C)C4CCC3C1(C)C)C(=O)OCc1ccccc1 (stereo not shown) ?
Reply | 0.18

Ask | GET /values?readout=log10 EC50&item= CC(C)(CC(=O)O[C@H]1CC[C@]23C[C@]24CC[C@]25CO[C@@]6(C(C)(C)O)CC[C@](C)(O6)[C@H]2[C@@H](O)[C@@H](O)[C@@]5(C)C4CCC3C1(C)C)C(=O)O (stereo partly shown)
Reply | -0.92
